target: Delta-type opioid receptor (Rattus norvegicus); experiment: Binding affinity towards Opioid receptor delta 1 using [3H]CI-DPDPE as radioligand in rat brain
Sequence (P33533 whole entry): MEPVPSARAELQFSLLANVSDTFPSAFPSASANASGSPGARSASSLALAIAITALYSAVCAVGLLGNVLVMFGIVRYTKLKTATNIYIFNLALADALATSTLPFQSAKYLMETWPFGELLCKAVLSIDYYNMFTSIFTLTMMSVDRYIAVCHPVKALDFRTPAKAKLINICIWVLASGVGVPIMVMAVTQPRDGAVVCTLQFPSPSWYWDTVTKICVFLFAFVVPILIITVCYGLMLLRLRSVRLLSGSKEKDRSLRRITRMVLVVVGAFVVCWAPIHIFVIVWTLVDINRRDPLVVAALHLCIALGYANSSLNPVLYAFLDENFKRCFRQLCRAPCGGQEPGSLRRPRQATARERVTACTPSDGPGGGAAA
pKi: −log10 of the molar value.
measureName: pKi

CN1CC2C(=O)C(C1)C(c1ccccn1)N(C)C2c1ccccn1 (stereo unspecified) ... < 5.00
